log10 of IC50 overview
Target: BRD4(49-170) bromodomain (Homo sapiens (Human), UniProt O60885)
Assay: BRD4 AlphaScreen Assay
Conditions: binding to biotin-H4(1-21) Ac-K5/8/12/16
Experimental: Specific binding of the CBP or BRD4 bromodomain to the acetylated peptide derived from the H4 histone substrate (tetra acetylated H4(1-21) Ac-K5/8/12/16) was measured in absence or presence of inhibitors. The GST tagged bromodomains of CBP (1081-1197) and BRD4 (49-170) were obtained from BPS Bioscience and binding to the biotinylated H4(1-21) Ac-K5/8/12/16 (AnaSpec. 64989) was assessed via AlphaScreen technology (Perkin Elmer). […]
Hey, these are logged values: log10 of IC50, µM being the unit before logging.

Sample records with log10 of IC50:
CC1C(=O)N(C)Cc2c(-c3cccc4nc(-c5cnn(C)c5)c(C(F)(F)F)cc34)nc(C3CCOCC3)n21 (single isomer, unassigned) [Example 26b]: 1.07
Cc1cn(-c2cc3cccc(-c4nc(C5CCOCC5)n5c4CN(C)C(=O)C5C)c3cn2)cn1 (single isomer, unassigned) [Example 30b]: 1.27
CN1Cc2c(-c3cccc4cc(C5CCOCC5)ncc34)nc(C3CCOCC3)n2CC1=O: 1.26
CC1C(=O)N(C)Cc2c(-c3cccc4cc(-c5ccn(C)n5)ncc34)nc(C3CCOCC3)n21 (stereo not drawn) [Example 86]: -0.63

We now examine a further compound.
Please look up its log10 of IC50: CC1C(=O)N(C)Cc2c(-c3cccc4nc(-c5cnn(C)c5)c(C(F)(F)F)cc34)nc(C3CCOCC3)n21 (single isomer, unassigned) [Example 26a]
-0.71
